# Tested on: Staphylococcus aureus
# ASSAY EXPLANATION: Antibacterial activity against Staphylococcus aureus ATCC 25923 after 24 hrs by micro broth dilution assay
# Format: functional
# PARTICULARS: ATCC 25923, 24 h
Overview of recorded MIC for various compounds
PROPERTY NAME: MIC (µM)

{"COMPOUND": "Cc1ncc([N+](=O)[O-])n1CCCCCCCCCCn1cnc2cc(F)ccc2c1=O", "TESTED SYSTEM": "Staphylococcus aureus", "PROPERTY NAME": "MIC", "LT GT EQ": "=", "OBSERVED RESULT": 20}
{"COMPOUND": "O=c1c2ccc(F)cc2ncn1CCBr", "TESTED SYSTEM": "Staphylococcus aureus", "PROPERTY NAME": "MIC", "LT GT EQ": ">", "OBSERVED RESULT": 1890}
{"COMPOUND": "O=c1c2ccc(F)cc2ncn1CCn1cnc([N+](=O)[O-])c1", "TESTED SYSTEM": "Staphylococcus aureus", "PROPERTY NAME": "MIC", "LT GT EQ": "=", "OBSERVED RESULT": 840}
{"COMPOUND": "Cc1ncc([N+](=O)[O-])n1CCCCn1cnc2cc(Cl)ccc2c1=O", "TESTED SYSTEM": "Staphylococcus aureus", "PROPERTY NAME": "MIC", "LT GT EQ": "=", "OBSERVED RESULT": 40}
{"COMPOUND": "OC(Cn1cncn1)(Cn1cncn1)c1ccc(F)cc1F [FLUCONAZOLE]", "TESTED SYSTEM": "Staphylococcus aureus", "PROPERTY NAME": "MIC", "LT GT EQ": ">", "OBSERVED RESULT": 1670}
{"COMPOUND": "O=c1c2ccc(Cl)cc2ncn1CCCCCBr", "TESTED SYSTEM": "Staphylococcus aureus", "PROPERTY NAME": "MIC", "LT GT EQ": ">", "OBSERVED RESULT": 1550}
{"COMPOUND": "O=c1c2ccc(Cl)cc2ncn1CCn1ccnc1", "TESTED SYSTEM": "Staphylococcus aureus", "PROPERTY NAME": "MIC", "LT GT EQ": ">", "OBSERVED RESULT": 1860}
{"COMPOUND": "Cc1ncc([N+](=O)[O-])n1CCn1cnc2cc(Cl)ccc2c1=O", "TESTED SYSTEM": "Staphylococcus aureus", "PROPERTY NAME": "MIC", "LT GT EQ": "=", "OBSERVED RESULT": 100}

====

# Tested on: Bacillus sp.
# ASSAY EXPLANATION: Antibacterial activity against Bacillus proteus ATCC 13315 after 24 hrs by micro broth dilution assay
# Format: functional
# PARTICULARS: Bacillus sp. (in: firmicutes), ATCC 13315, 24 h

{"LINE NOTATION": "OC(Cn1cncn1)(Cn1cncn1)c1ccc(F)cc1F", "TESTED SYSTEM": "Bacillus sp.", "LT GT EQ": ">", "MIC [µM]": 1670}
{"LINE NOTATION": "O=c1c2ccc(Cl)cc2ncn1CCCCn1cnc([N+](=O)[O-])c1", "TESTED SYSTEM": "Bacillus sp.", "LT GT EQ": "=", "MIC [µM]": 370}
{"LINE NOTATION": "O=c1c2ccc(F)cc2ncn1CCBr", "TESTED SYSTEM": "Bacillus sp.", "LT GT EQ": "=", "MIC [µM]": 470}
{"LINE NOTATION": "O=c1c2ccc(F)cc2ncn1CCn1cnc([N+](=O)[O-])c1", "TESTED SYSTEM": "Bacillus sp.", "LT GT EQ": "=", "MIC [µM]": 420}
{"LINE NOTATION": "Cc1ncc([N+](=O)[O-])n1CCCCCCn1cnc2cc(F)ccc2c1=O", "TESTED SYSTEM": "Bacillus sp.", "LT GT EQ": "=", "MIC [µM]": 40}
{"LINE NOTATION": "O=c1c2ccc(Cl)cc2ncn1CCCCCBr", "TESTED SYSTEM": "Bacillus sp.", "LT GT EQ": "=", "MIC [µM]": 390}
{"LINE NOTATION": "O=c1c2ccc(F)cc2ncn1CCCCCn1cnc([N+](=O)[O-])c1", "TESTED SYSTEM": "Bacillus sp.", "LT GT EQ": "=", "MIC [µM]": 370}
{"LINE NOTATION": "CCn1cc(C(=O)O)c(=O)c2cc(F)c(N3CCNCC3)cc21", "TESTED SYSTEM": "Bacillus sp.", "LT GT EQ": "=", "MIC [µM]": 10}
{"LINE NOTATION": "O=c1c2ccc(F)cc2ncn1CCCCCBr", "TESTED SYSTEM": "Bacillus sp.", "LT GT EQ": "=", "MIC [µM]": 410}
{"LINE NOTATION": "Cc1ncc([N+](=O)[O-])n1CCn1cnc2cc(Cl)ccc2c1=O", "TESTED SYSTEM": "Bacillus sp.", "LT GT EQ": "=", "MIC [µM]": 50}

====

# System: Candida
# ASSAY EXPLANATION: Antifungal activity against Candida mycoderma ATCC 9888 after 24 hrs by micro broth dilution assay
# Type: functional
# PARTICULARS: ATCC 9888, 24 h
PROPERTY NAME: MIC

{"LINE NOTATION": "O=c1c2ccc(Cl)cc2ncn1CCBr", "OBSERVED RESULT": "> 1780 µM"}
{"LINE NOTATION": "O=c1c2ccc(Cl)cc2ncn1CCCCCCBr", "OBSERVED RESULT": "> 1490 µM"}
{"LINE NOTATION": "O=c1c2ccc(Cl)cc2ncn1CCCCCBr", "OBSERVED RESULT": "> 1550 µM"}
{"LINE NOTATION": "O=c1c2ccc(Cl)cc2ncn1CCCCBr", "OBSERVED RESULT": "> 1620 µM"}
